Consider the following molecules and their measured TGI readings.
test system: OVCAR-8 ovarian; experiment: NCI tumour cell line growth inhibition, 48 h
READOUT_LABEL: TGI

>>> print(df.to_string())
                                   molecule  measured_result
0  CNC1=C(C)C(=O)C(=O)C([C@H](C)CCC=C(C)C)=C1O        > 60.9 µM
1  O=C(c1cccs1)N(C(=S)N1CCN(c2ccccn2)CC1)c1ccccc1         > 100 µM
2  C=C1CCC2C3(C)COC(c4ccc(N(C)C)cc4)OC3CCC2(C)C1C/C=C1/C(=O)OCC1O (stereo unspecified)          18.9 µM
3  Nc1c(C(=O)c2cccc(-c3ccncc3)c2)cnn1-c1ccc(F)cc1F          > 25 µM
4     CC(C)OC(=O)c1ccc(NCc2cc(O)ccc2O)cc1Cl        > 70.1 µM
5  Cc1c(C(N)=O)sc2c1C(=O)N(Cc1ccccc1)C1=NN=C(c3ccc(Cl)cc3)CN12          15.2 µM
